Field: IC50. Provide a value for each of the molecules that follow.
Assay Target: rhSYK (Homo sapiens, UniProt P43405)
Run Description: biochemical

# input What IC50 value was documented for this molecule, Cc1cc(Nc2nccc(C(F)(F)F)n2)cc(-c2cnc([C@]3(O)CC[C@@H](C(=O)NCc4ccc5c(c4)CNC5=O)CC3)s2)c1 ?
# output < 100 nM

# input Again, but for Cc1cc(Nc2nccc(C(F)(F)F)n2)cc(-c2cnc([C@]3(O)CC[C@@H](C(=O)N4CCC(O)CC4)CC3)s2)c1
# output < 100 nM

# input Again, but for Cc1cc(Nc2nccc(C(F)(F)F)n2)cc(-c2cnc([C@]3(O)CC[C@@H](C(=O)N4CCC(Cc5ccccc5)CC4)CC3)s2)c1
# output 100 to 1000 nM

###

Field: pIC50. Provide a value for each of the compounds that follow.
Assay Target: rhSYK (Homo sapiens)
Assay Conditions: read-out: rhSYK Activity; class symbol; where two forms are listed, one symbol per form
pIC50: −log10 of the molar value.

# input Item: CC(O)(c1ccn(S(=O)(=O)c2ccccc2)c1)c1ncc(-c2cccc(Nc3nccc(C(F)(F)F)n3)c2)s1 (centres unmarked) Test system: rhSYK (Homo sapiens) Read-out: pIC50 Value: ?
# output 6.00 to 7.00

# input Again, but for CC(C)(O)c1ncc(-c2cccc(Nc3nccc(C(F)(F)F)n3)c2)s1
# output > 7.00

# input Again, but for CN(C)CC(C)(C)C(O)c1ncc(-c2cccc(Nc3nccc(C(F)(F)F)n3)c2)s1 (centres unmarked)
# output 6.00 to 7.00

# input Again, but for Cc1cc(Nc2nccc(C(F)(F)F)n2)cc(-c2cnc(C3(O)CCC3)s2)c1
# output > 7.00

# input Again, but for O=C(c1ccon1)c1ncc(-c2cccc(Nc3nccc(C(F)(F)F)n3)c2)s1
# output > 7.00

# input Again, but for Cc1cc(Nc2ncc(F)c(C)n2)cc(-c2cnc(C(C)(O)CO)s2)c1 (centres unmarked) [Ex 5-10]
# output > 7.00

# input Again, but for Cc1cc(Nc2ncc(F)c(C3CC3)n2)cc(-c2cnc(C(C)(O)CO)s2)c1 (centres unmarked) [Ex 5-18]
# output > 7.00

# input Again, but for Cc1cc(Nc2nccc(C(F)(F)F)n2)cc(-c2cnc(C(C)(O)c3ccc(Br)nc3)s2)c1 (centres unmarked) [Example 4A-70]
# output > 7.00

###

Assay Target: recombinant human SYK (GST-hSYK fusion protein) (Homo sapiens, UniProt P43405)
Run Description: biochemical
Assay Conditions: rhSYK Activity, Table 26
pIC50: −log10 of the molar value.
Outcome Measure: pIC50

# input Item: FC(F)(F)c1ccnc(Nc2cccc(-c3cnc(C4(F)CCC4)s3)c2)n1 Test system: recombinant human SYK (GST-hSYK fusion protein) (Homo sapiens, UniProt P43405) Read-out: pIC50 Value: ?
# output 6.00 to 7.00

###

Field: IC50. Provide a value for each of the molecules that follow.
Assay Target: recombinant human SYK (GST-hSYK fusion protein) (Homo sapiens)
Run Description: biochemical
Assay Conditions: rhSYK Activity, Table 56

# input What IC50 value was documented for this molecule, Cc1cc(Nc2nccc(C)n2)cc(-c2cnc(C3(O)CCC3)s2)c1 ?
# output < 100 nM

# input Again, but for CCc1ccnc(Nc2cc(C)cc(-c3cnc(C4(O)CCC4)s3)c2)n1
# output < 100 nM

# input Again, but for Cc1cc(Nc2nccc(C3CC3)n2)cc(-c2cnc(C3(O)CCC3)s2)c1
# output < 100 nM
